- Experimental target: bovine cardiac myofibrils (full-length cardiac myosin ATPase in the native sarcomere) (Bos taurus (Bovine), UniProt Q9BE39)
- Sequence (Q9BE39 whole entry): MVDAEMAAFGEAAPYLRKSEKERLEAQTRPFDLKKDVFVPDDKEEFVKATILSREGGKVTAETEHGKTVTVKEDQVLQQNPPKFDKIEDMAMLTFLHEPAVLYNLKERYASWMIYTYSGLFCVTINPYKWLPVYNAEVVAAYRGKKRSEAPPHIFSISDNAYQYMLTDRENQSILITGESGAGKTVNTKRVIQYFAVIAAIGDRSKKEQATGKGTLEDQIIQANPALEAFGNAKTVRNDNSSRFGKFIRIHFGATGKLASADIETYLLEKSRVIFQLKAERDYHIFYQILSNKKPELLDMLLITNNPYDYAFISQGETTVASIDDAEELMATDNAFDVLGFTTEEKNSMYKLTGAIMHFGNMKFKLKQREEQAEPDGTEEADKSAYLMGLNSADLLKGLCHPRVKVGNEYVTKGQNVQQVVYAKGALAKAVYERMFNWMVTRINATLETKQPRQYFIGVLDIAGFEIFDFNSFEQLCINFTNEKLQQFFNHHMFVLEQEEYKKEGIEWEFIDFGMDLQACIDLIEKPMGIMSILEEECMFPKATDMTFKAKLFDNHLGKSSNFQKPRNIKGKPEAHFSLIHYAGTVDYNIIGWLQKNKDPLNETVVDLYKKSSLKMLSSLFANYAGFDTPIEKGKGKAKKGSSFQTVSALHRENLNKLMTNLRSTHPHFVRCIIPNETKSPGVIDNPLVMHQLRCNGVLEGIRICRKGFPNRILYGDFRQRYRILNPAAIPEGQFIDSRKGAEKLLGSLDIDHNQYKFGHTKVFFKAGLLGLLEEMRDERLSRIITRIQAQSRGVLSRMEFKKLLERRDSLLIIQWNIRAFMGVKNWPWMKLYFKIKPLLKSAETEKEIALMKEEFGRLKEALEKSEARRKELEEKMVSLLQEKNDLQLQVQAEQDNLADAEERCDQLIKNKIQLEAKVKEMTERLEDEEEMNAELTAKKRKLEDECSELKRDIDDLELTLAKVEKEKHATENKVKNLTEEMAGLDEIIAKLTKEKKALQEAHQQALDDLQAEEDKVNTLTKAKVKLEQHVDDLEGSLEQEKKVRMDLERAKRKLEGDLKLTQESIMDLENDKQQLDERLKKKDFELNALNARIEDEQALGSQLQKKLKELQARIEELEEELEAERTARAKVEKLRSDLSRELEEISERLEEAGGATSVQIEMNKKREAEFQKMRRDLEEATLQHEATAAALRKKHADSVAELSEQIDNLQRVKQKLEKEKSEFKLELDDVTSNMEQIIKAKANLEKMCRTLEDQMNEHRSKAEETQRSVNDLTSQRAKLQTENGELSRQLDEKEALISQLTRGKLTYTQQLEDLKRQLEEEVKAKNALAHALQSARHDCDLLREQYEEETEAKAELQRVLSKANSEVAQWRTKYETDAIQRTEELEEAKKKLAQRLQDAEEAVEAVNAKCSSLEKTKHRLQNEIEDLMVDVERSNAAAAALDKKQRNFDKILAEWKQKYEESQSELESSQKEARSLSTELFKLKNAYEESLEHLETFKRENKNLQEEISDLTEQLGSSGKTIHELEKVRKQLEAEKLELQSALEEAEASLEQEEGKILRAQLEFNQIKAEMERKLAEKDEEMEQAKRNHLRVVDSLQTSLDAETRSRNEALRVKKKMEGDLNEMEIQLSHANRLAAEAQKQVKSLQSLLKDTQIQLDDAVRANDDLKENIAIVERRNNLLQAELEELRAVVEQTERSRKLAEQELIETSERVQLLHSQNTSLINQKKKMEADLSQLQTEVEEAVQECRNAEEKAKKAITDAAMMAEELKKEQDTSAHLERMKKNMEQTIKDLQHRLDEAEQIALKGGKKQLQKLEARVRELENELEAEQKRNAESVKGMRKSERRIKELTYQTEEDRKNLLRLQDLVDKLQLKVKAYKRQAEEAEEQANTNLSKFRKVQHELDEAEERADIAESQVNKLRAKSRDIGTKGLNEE
- Sequence (P85100 whole entry partner): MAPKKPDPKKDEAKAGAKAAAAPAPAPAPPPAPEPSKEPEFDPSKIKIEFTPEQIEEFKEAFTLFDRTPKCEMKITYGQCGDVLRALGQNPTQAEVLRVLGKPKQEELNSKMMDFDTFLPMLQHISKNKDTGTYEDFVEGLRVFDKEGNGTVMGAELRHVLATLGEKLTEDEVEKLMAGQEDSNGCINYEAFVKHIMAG
- Sequence (Q3SZE5 whole entry partner): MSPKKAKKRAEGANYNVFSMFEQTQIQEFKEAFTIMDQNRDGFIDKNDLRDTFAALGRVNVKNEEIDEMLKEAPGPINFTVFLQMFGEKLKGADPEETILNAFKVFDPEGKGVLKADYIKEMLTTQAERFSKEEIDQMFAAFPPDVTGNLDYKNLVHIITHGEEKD
- Measurement protocol: Skinned bovine cardiac myofibril ATPase assay (PK/LDH-coupled)
- Assay setup: Ca2+ activating to 75% of maximal rate, read-out: CDMF75 IC50
pIC50: −log10 of the molar value.
Measured endpoint: pIC50

[
  {
    "Cpd smiles": "COc1cc(C(=O)N[C@@H]2CCc3cc(-c4noc(C(F)F)n4)ccc32)on1",
    "pIC50": 5.77
  }
]

[A] CCc1nc(-c2ccc3c(c2)CC[C@H]3NC(=O)c2cn(CCO)nc2C)no1
[B] Cc1noc(-c2ccc3c(c2)CC[C@H]3NC(=O)c2nnn(C)n2)n1
Incoming: Identify the entry with the larger pIC50. Options: A and B Use the label to indicate which entry you chose.
Outgoing: A
(A: 5.72, B: 5.44)

###

- Experimental target: bovine cardiac myofibrils (full-length cardiac myosin ATPase in the native sarcomere) (Bos taurus (Bovine), UniProt Q9BE39)
- Measurement protocol: Skinned bovine cardiac myofibril ATPase assay (PK/LDH-coupled)
- Type: biochemical
- Assay setup: Ca2+ activating to 75% of maximal rate, concentration giving 15% inhibition
Measured endpoint: CDMF75 IC15 (nM)

[A] CCc1nc(-c2ccc3c(c2)OC[C@H]3NC(=O)c2conc2C)no1
[B] [2H]C([2H])([2H])c1noc(-c2ccc3c(c2)CC[C@H]3NC(=O)c2ccnn2C)n1
[C] Cc1cc(C(=O)NC2CCc3cc(-c4noc(C)n4)ccc32)ccn1 (stereo not shown)
Incoming: // sort listed items: CDMF75 IC15 descending Please respond by ranking the labels in the order requested.
Outgoing: C, B, A

[1] Cc1ncoc1C(=O)N[C@@H]1CCc2cc(-c3noc(C(C)C)n3)ccc21
[2] Cc1cc(C(=O)N[C@@H]2CCc3cc(-c4noc(C(F)F)n4)ccc32)on1
Incoming: Identify the entry with the larger CDMF75 IC15. Options: 1 and 2 Use the label to indicate which entry you chose.
Outgoing: 2

###

- Experimental target: bovine cardiac myofibrils (full-length cardiac myosin ATPase in the native sarcomere) (Bos taurus (Bovine))
- Measurement protocol: Skinned bovine cardiac myofibril ATPase assay (PK/LDH-coupled)
- Assay setup: Ca2+ activating to 75% of maximal rate, read-out: CDMF75 IC50
pIC50: −log10 of the molar value.
Measured endpoint: pIC50

[I] CCc1nc(-c2ccc3c(c2)CCCC3NC(=O)c2cnn(C)c2)no1 (stereo not shown) [Compound 515]
[II] Cn1nccc1C(=O)NC1COc2cc(-c3noc(C(F)F)n3)ccc21 (stereo not shown) [Compound 123]
[III] CCc1nc(-c2ccc3c(c2)CC[C@H]3NC(=O)c2ccnn2C)no1 [Compound 240]
[IV] [2H]C([2H])([2H])c1nc(-c2ccc3c(c2)CC[C@H]3NC(=O)c2c[nH]nc2C)no1 [Compound 401]
Incoming: // sort listed items: pIC50 descending Please respond by ranking the labels in the order requested.
Outgoing: III, II, IV, I
(III: 6.10, II: 5.77, IV: 5.52, I: 4.71)

###

- Experimental target: bovine cardiac myofibrils (full-length cardiac myosin ATPase in the native sarcomere) (Bos taurus (Bovine))
- Measurement protocol: Skinned bovine cardiac myofibril ATPase assay (PK/LDH-coupled)
- Assay setup: Ca2+ activating to 75% of maximal rate, read-out: CDMF75 IC50
Measured endpoint: IC50 (µM)

Check out these entries, answers already filled in.
[
  {
    "Compound": "Cn1cc(C(=O)N[C@@H]2CCc3cc(-c4noc(C(F)F)n4)ccc32)ccc1=O [Compound 644]",
    "IC50 / µM": 5.9
  },
  {
    "Compound": "CCc1nc(-c2ccc3c(c2)CC[C@H]3NC(=O)c2ccc(=O)n(CCO)c2)no1 [Compound 605]",
    "IC50 / µM": 3.4
  },
  {
    "Compound": "Cc1nc(-c2ccc3c(c2)OCC3NC(=O)c2cnn(C)c2C)no1 (centres unmarked) [Compound 162]",
    "IC50 / µM": 6.4
  }
]

[P] COCc1nc(-c2ccc3c(c2)CC[C@H]3NC(=O)c2ccnc(C(F)F)c2)no1 [Compound 731]
[Q] CC#Cc1ccc2c(c1)CC[C@H]2NC(=O)c1ccnn1C [Compound 452]
[R] Cc1cc(-c2ccc3c(c2)OC[C@H]3NC(=O)c2cnn(C)c2)no1 [Compound 426]
[S] CCc1nc(-c2ccc3c(c2)CC[C@H]3NC(=O)Cc2ccccc2)no1 [Compound 591]
[T] O=C(N[C@@H]1CCc2cc(-c3noc(C(F)F)n3)ccc21)c1cccc(CO)c1 [Compound 661]
Incoming: Order the records so the highest IC50 appears first and the lowest last. Please respond by ranking the labels in the order requested.
Outgoing: Q, S, P, R, T
(Q: 20.3 µM, S: 9.8 µM, P: 5.3 µM, R: 2.6 µM, T: 1.1 µM)

Cited source for all entries: patent US12065436B2
